target: BRD9 (Homo sapiens); experiment: Degradation of BRD9 (IF), immunofluorescence in MV4-11 cells, 24 hours (Assay Protocol 2); type: cell-based; parameters: A suspension of MV4-11 cells (ATCC CRL-9591) was prepared; host or cells: MV4-11; details: Assay protocol 2; BRD9 degradation; read-out: DC50
Sequence (Q9H8M2 whole entry): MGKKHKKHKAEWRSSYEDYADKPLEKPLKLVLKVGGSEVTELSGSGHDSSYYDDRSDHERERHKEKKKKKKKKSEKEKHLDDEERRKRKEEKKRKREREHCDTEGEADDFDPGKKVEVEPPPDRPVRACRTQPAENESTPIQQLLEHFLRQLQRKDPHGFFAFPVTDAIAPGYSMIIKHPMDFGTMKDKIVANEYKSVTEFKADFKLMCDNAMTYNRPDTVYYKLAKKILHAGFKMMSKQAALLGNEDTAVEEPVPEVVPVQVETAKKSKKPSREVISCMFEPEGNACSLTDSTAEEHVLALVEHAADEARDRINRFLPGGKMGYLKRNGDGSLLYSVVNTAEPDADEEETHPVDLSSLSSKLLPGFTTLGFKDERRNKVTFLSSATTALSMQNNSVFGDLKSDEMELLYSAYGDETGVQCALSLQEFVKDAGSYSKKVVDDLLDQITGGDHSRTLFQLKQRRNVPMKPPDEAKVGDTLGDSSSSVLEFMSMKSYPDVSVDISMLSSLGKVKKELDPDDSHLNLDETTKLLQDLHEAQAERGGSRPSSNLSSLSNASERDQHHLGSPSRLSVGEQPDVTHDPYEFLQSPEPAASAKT
DC50 values by entry

[
  {
    "compound": "COc1cc(-c2cn(C)c(=O)c(C)c2C)cc(OC)c1CN1CCN(Cc2cccc3c2CCN(C(=O)/C(C#N)=C/C(C)(C)CF)C3C(C)C)CC12CC2 (single isomer, unassigned) [Compound C102]",
    "DC50": "25 to 1000 nM"
  },
  {
    "compound": "COc1cc(-c2cn(C)c(=O)c(C)c2C)cc(OC)c1CN1CCN(Cc2ccc3c(c2)[C@H](C)N(C(=O)/C(C#N)=C/C(C)(C)CF)CC3)C2(CC2)C1 (single isomer, unassigned)",
    "DC50": "25 to 1000 nM"
  },
  {
    "compound": "COc1cc(-c2cn(C)c(=O)c(C)c2C)cc(OC)c1CN1CCC(O)(Cc2cccc3c2CCN(C(=O)/C(C#N)=C/C(C)(C)C)C3C)CC1 (mixture of isomers)",
    "DC50": "25 to 1000 nM"
  },
  {
    "compound": "COc1cc(-c2cn(C)c(=O)c(C)c2C)cc(OC)c1CN1CCN(Cc2cccc3c2CCN(C(=O)/C(C#N)=C/C(C)(C)C)C3C(C)C)CC12CC2 (mixture of isomers)",
    "DC50": "1.25 to 10 nM"
  },
  {
    "compound": "COc1cc(-c2cn(C)c(=O)c(C)c2C)ccc1OC1CCC(Cc2cccc3c2CCN(C(=O)/C(C#N)=C/C(C)(C)N2CCN(C4COC4)CC2)C3C)CC1 (stereo not shown)",
    "DC50": "25 to 1000 nM"
  },
  {
    "compound": "COc1cc(-c2cn(C)c(=O)c(C)c2C)cc(OC)c1CN1CCC2(CC1)CCN(c1cccc3c1CCN(C(=O)/C(C#N)=C/C(C)(C)C)C3C)CC2 (mixture of isomers)",
    "DC50": "10 to 25 nM"
  },
  {
    "compound": "COc1cc(-c2cn(C)c(=O)c(C)c2C)cc(OC)c1CN1CCN(Cc2cccc3c2CCN(C(=O)/C(C#N)=C/C(C)(C)C)C3C)[C@@H](C)C1 (mixture of isomers)",
    "DC50": "25 to 1000 nM"
  },
  {
    "compound": "COc1cc(-c2cn(C)c(=O)c(C)c2C)cc(OC)c1CN(C)Cc1ccc2c(c1)CCN(C(=O)/C(C#N)=C/c1nc3ccccc3s1)C2C (mixture of isomers)",
    "DC50": "< 1.25 nM"
  },
  {
    "compound": "CC[C@@H]1CN(Cc2cccc3c2CCN(C(=O)/C(C#N)=C/C(C)(C)C)C3C)CCN1Cc1c(OC)cc(-c2cn(C)c(=O)c(C)c2C)cc1OC (mixture of isomers)",
    "DC50": "1.25 to 10 nM"
  },
  {
    "compound": "COc1cc(-c2cn(C)c(=O)c(C)c2C)cc(OC)c1CN1CCN(Cc2ccc3c(c2)C(C)N(C(=O)/C(C#N)=C/C2(C)CCC(F)(F)CC2)CC3)C2(CC2)C1 (single isomer, unassigned)",
    "DC50": "1.25 to 10 nM"
  }
]
